Biological target: αvβ1 integrin (αvβ1 expressing CHO cells) (Homo sapiens (Human), UniProt P05556+P06756)
Sequence (P06756 31-889): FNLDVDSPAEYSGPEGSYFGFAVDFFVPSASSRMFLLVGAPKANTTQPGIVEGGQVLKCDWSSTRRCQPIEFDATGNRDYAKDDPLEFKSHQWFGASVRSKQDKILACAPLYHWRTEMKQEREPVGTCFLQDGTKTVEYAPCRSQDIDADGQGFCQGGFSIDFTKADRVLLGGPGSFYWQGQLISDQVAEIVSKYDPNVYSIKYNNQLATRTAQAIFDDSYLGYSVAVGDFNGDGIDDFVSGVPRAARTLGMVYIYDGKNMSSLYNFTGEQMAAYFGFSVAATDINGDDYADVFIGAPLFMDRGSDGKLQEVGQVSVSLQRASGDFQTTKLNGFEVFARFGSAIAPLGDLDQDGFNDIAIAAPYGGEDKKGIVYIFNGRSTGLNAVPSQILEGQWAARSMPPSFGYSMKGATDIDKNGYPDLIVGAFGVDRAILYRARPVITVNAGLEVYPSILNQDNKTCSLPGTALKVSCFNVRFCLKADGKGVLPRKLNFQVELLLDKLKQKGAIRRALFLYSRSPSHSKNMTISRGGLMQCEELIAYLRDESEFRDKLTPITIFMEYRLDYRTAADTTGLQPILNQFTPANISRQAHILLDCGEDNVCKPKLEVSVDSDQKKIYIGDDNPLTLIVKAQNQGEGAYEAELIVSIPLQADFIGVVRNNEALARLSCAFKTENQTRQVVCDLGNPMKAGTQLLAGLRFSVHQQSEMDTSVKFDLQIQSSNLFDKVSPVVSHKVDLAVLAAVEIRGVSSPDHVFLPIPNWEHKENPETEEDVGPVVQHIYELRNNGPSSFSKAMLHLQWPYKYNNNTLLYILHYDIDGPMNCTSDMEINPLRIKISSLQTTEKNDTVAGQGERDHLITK
Sequence (P06756 891-1048 partner): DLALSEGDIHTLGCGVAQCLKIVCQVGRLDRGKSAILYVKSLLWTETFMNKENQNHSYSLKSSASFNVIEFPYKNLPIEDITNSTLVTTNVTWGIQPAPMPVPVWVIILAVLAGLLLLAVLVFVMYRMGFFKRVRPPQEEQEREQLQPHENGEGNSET
Sequence (P05556 21-798): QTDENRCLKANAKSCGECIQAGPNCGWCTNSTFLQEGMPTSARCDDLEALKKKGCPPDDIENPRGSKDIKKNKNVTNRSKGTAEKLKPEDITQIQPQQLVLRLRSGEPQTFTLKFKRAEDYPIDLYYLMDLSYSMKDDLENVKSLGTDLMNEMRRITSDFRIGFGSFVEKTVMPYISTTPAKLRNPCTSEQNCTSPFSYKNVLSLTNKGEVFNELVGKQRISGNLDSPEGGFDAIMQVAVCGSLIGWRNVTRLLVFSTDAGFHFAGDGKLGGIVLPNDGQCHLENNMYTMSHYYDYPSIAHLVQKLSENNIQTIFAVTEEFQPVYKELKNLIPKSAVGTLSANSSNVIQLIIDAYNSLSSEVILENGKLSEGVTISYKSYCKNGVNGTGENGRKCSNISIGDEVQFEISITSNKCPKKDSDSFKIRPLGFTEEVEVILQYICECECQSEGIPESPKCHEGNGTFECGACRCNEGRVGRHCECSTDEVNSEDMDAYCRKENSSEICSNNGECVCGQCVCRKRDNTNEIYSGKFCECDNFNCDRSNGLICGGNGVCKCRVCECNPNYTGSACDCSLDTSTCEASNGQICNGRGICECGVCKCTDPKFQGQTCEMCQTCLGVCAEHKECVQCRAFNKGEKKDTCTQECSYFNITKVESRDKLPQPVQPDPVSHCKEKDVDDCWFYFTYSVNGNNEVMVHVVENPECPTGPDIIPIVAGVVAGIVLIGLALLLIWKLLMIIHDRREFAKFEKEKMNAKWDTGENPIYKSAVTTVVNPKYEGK
Test: Cell adhesion assay: inhibition of αvβ1 expressing CHO cells attaching to TGFβ1LAP
Assay type: cell-based
Details: 1 h at 37° C., crystal violet absorbance 595 nm, read-out: αvβ1 Inhibition IC50 (nM)-range
Please provide measured IC50 for the entries that follow.

Look up IC50 for this compound: O=C(N[C@@H](Cc1ccc(OCCCc2ccc3c(n2)NCCC3)cc1)C(=O)O)c1c(F)cccc1F
< 50 nM

What do you get for O=C(N[C@@H](Cc1ccc(OCCCc2ccc3c(n2)NCCC3)cc1)C(=O)O)c1ccccc1 ?
< 50 nM

What do you get for O=C(N[C@@H](CCCCCCCc1ccc2c(n1)NCCC2)C(=O)O)c1ccc2cnn(C(F)F)c2c1 ?
250 to 1000 nM

What do you get for O=C(N[C@@H](Cc1ccc(OCC2(CNc3ccccn3)CC2)cc1)C(=O)O)c1c(Cl)cccc1Cl ?
50 to 250 nM

----------
Biological target: αvβ1 integrin (αvβ1 expressing CHO cells) (Homo sapiens (Human), UniProt P05556+P06756)
Test: Cell adhesion assay: inhibition of αvβ1 expressing CHO cells attaching to TGFβ1LAP
Assay type: cell-based
Conditions: 1 h at 37° C., crystal violet absorbance 595 nm, read-out: αvβ1 Inhibition IC50 (nM)-range
REPORTED_PROPERTY: IC50

Notebook entry, αvβ1 integrin (αvβ1 expressing CHO cells) (Homo sapiens (Human), UniProt P05556+P06756) assay: IC50 of O=C(N[C@@H](Cc1ccc(N2CC(c3ccc4c(n3)NCCC4)C2)cc1)C(=O)O)c1c(Cl)cccc1Cl = ?
< 50 nM

What do you get for O=C(N[C@@H](Cc1cccc(OCCCc2ccc3c(n2)NCCC3)c1)C(=O)O)c1c(Cl)cccc1Cl ?
250 to 1000 nM

What do you get for O=C(NC(Cc1ccc(OCCCC2Cc3cccnc3N2)cc1)C(=O)O)c1c(Cl)cccc1Cl (stereo not shown) ?
< 50 nM

What do you get for Cn1ncc2cc(C(=O)NC(CCCCCCCc3ccc4c(n3)NCCC4)C(=O)O)ccc21 (stereo not shown) ?
50 to 250 nM

----------
Molecular target: recombinant human integrin αvβ1 (Homo sapiens (Human), UniProt P05556+P06756)
Assay: Solid phase integrin αvβ1 binding assay (fibronectin)
Conditions: recombinant human integrin αvβ1 coated plate, recombinant fibronectin 2 ug/ml, 2 hours at 25° C., read-out: αvβ1 Inhibition IC50 (nM)-range
REPORTED_PROPERTY: IC50

Look up IC50 for this molecule: COc1cccc(C(=O)NC(CCCCCCCc2ccc3c(n2)NCCC3)C(=O)O)c1 (stereo not shown) [Compound 93]
< 50 nM

What do you get for O=C(N[C@@H](CCCCCCCc1ccc2c(n1)NCCC2)C(=O)O)c1cccc(F)c1Cl [Compound 121] ?
< 50 nM

What do you get for O=C(N[C@H](CCCCCCCc1ccc2c(n1)NCCC2)C(=O)O)c1cc(F)cc(C(F)(F)F)c1 [Compound 125] ?
> 1000 nM

What do you get for O=C(NC(CCCCCCCc1ccc2c(n1)NCCC2)C(=O)O)c1cccc(Cl)c1 (stereo not shown) [Compound 91] ?
< 50 nM

----------
Biological target: αvβ1 integrin (αvβ1 expressing CHO cells) (Homo sapiens (Human), UniProt P05556+P06756)
Test: Cell adhesion assay: inhibition of αvβ1 expressing CHO cells attaching to TGFβ1LAP
Format: cell-based
Conditions: 1 h at 37° C., crystal violet absorbance 595 nm, read-out: αvβ1 Inhibition IC50 (nM)-range
Please provide measured IC50 for the entries that follow.

Notebook entry, αvβ1 integrin (αvβ1 expressing CHO cells) (Homo sapiens (Human), UniProt P05556+P06756) assay: IC50 of O=C(N[C@@H](Cc1ccc(OCCCc2ccc3c(n2)NCCC3)cc1)C(=O)O)c1ccncc1 = ?
< 50 nM

What do you get for O=C(N[C@@H](Cc1ccc(OCCCC2CCc3cccnc3N2)cc1)C(=O)O)c1c(Cl)cccc1Cl (stereo partly drawn) ?
< 50 nM

What do you get for O=C(NC(Cc1ccc(COC2CC(Nc3ccccn3)C2)cc1)C(=O)O)c1c(Cl)cccc1Cl (stereo not drawn) ?
50 to 250 nM

Source of measurements: patent US20230365556A1
